Measurement record for USP30 (Homo sapiens (Human), UniProt Q70CQ3); quantity recorded: log10 IC50.
In plain terms, each number is the log10 of measured IC50 in nM.

I am curious: what log10 IC50 value has been reported for CC(C)(C)NS(=O)(=O)c1ccc(NC(=O)[C@H](CC2CC2)NC(=O)C2CCCCC2)cc1 [Compound 19c] ?
2.91

Same question for CC(C)(C)NS(=O)(=O)c1ccc(NC(=O)[C@H](Cc2ccncc2)NC(=O)c2ccc(F)cc2)cc1 [Compound 19y] please.
1.30

Same question for CC(C)(C)NS(=O)(=O)c1cccc2c(NC(=O)[C@H](Cc3ccccc3)NC(=O)C3CCC(F)(F)CC3)cccc12 [Compound 4n] please.
1.99

Same question for CC(C)(C)NS(=O)(=O)c1cccc2c(NC(=O)[C@H](Cc3ccccc3)NC(=O)C3CCCCCC3)cccc12 [Compound 4p] please.
3.63

Same question for CC(C)(C)NS(=O)(=O)c1cccc2c(NC(=O)[C@H](CC3CCCCC3)NC(=O)C3CCCCC3)cccc12 [Compound 19p] please.
2.29

Same question for CC(C)(C)NS(=O)(=O)c1ccc(NC(=O)[C@H](Cc2ccc(F)cc2)NC(=O)c2ccc(F)cc2)cc1 [Compound 19k] please.
1.41

* * *

Measurement record for USP30 (Homo sapiens (Human)); quantity recorded: IC50.
Note: unit nM is implicit; provide only the numeric part.

I am curious: what IC50 value has been reported for CC(C)(C)NS(=O)(=O)c1cccc2c(NC(=O)[C@H](Cc3ccccc3)NC(=O)c3ccc(C#N)cc3)cccc12 [Compound 4r] ?
269

Same question for Cc1ccc(C(=O)N[C@@H](Cc2ccccc2)C(=O)Nc2cccc3c(S(=O)(=O)NC(C)(C)C)cccc23)cc1 [Compound 4i] please.
2500

Same question for CC(C)(C)NS(=O)(=O)c1ccc(NC(=O)[C@H](Cc2ccccc2)NC(=O)C2CCCC2)cc1 [Compound 10c] please.
71

Same question for CC(C)(C)NS(=O)(=O)c1ccc(NC(=O)[C@H](CC2CCCCC2)NC(=O)c2ccc(F)cc2)cc1 [Compound 14c] please.
23

* * *

Target: USP30 (Homo sapiens (Human), UniProt Q70CQ3)
Sequence (Q70CQ3 whole entry): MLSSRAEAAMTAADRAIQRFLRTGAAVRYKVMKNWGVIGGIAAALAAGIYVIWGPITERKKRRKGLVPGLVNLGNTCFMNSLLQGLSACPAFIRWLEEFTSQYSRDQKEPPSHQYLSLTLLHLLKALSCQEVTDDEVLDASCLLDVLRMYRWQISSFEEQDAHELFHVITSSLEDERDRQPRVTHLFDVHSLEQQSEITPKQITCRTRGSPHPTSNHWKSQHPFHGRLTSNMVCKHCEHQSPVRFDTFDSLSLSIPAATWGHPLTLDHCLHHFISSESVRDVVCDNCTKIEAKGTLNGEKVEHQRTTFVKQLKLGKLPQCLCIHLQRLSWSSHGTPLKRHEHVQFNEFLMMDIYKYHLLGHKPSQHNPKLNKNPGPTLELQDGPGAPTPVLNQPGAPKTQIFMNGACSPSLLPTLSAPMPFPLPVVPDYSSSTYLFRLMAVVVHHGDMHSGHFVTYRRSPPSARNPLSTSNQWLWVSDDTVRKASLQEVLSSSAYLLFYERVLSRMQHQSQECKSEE
Property name: pIC50
Units for pIC50: none; it is -log10 of a concentration expressed in mol/L.

I am curious: what pIC50 value has been reported for CC(C)(C)NS(=O)(=O)c1ccc(NC(=O)[C@H](CC2CCOCC2)NC(=O)C2CCCCC2)cc1 [Compound 19ac] ?
7.15

Same question for CC(C)(C)NS(=O)(=O)c1ccc(NC(=O)[C@@H](Cc2ccccc2)NC(=O)C2CCCCC2)cc1 [Compound 10d] please.
7.55

Same question for CC(C)NS(=O)(=O)c1ccc(NC(=O)[C@H](Cc2ccccc2)NC(=O)C2CCCCC2)cc1 [Compound 19h] please.
6.75

* * *

Measurement record for USP30 (Homo sapiens (Human), UniProt Q70CQ3); quantity recorded: pIC50.
Units for pIC50: none; it is -log10 of a concentration expressed in mol/L.

I am curious: what pIC50 value has been reported for CC(C)(C)NS(=O)(=O)c1ccc(NC(=O)[C@H](CC2CCCCC2)NC(=O)C2CCCCC2)cc1 [Compound 14b] ?
7.08

Same question for CC(C)(C)NS(=O)(=O)c1ccc(NC(=O)[C@H](CC2CCCCC2)NC(=O)C2CCCC2)cc1 [Compound 14e] please.
6.92

Same question for CC(C)(C)NS(=O)(=O)c1ccc(NC(=O)[C@H](Cc2ccc(F)cc2)NC(=O)c2ccccc2)cc1 [Compound 19b] please.
6.88

Same question for CC(C)(C)NS(=O)(=O)c1ccc(NC(=O)[C@H](Cc2ccccc2)NC(=O)c2cccnn2)cc1 [Compound 10j] please.
6.83

* * *

Target: USP30 (Homo sapiens (Human), UniProt Q70CQ3)
Property name: IC50

I am curious: what IC50 value has been reported for CC(C)(C)NS(=O)(=O)c1cccc2c(NC(=O)[C@H](Cc3ccccc3)NC(=O)/C=C/c3ccccc3)cccc12 [Compound 19q] ?
> 10 µM

Same question for CC(C)(C)NS(=O)(=O)c1ccc(NC(=O)[C@H](Cc2ccccc2)NC(=O)c2ccccc2)cc1 [Compound 10a] please.
> 10 µM

Same question for CC(C)(C)NS(=O)(=O)c1ccc(NC(=O)[C@H](Cc2ccccc2)NC(=O)c2ccc(C(=O)O)cc2)cc1 [Compound 10f] please.
> 10 µM

* * *

I'd be grateful if you could share measured IC50 for these entries.
Biological target: USP30 (Homo sapiens (Human))

Hi! What's the reported IC50 for CC1CCC(C(=O)N[C@@H](Cc2ccccc2)C(=O)Nc2cccc3c(S(=O)(=O)NC(C)(C)C)cccc23)CC1 (stereo partly drawn) [Compound 4t] on USP30 (Homo sapiens (Human))?
> 10 µM

Same question for COC(=O)c1ccc(C(=O)N[C@@H](Cc2ccccc2)C(=O)Nc2ccc(S(=O)(=O)NC(C)(C)C)cc2)cc1 [Compound 10g] please.
> 10 µM

Same question for CC(C)(C)NS(=O)(=O)c1ccc(NC(=O)[C@H](CC2CCCCC2)NC(=O)c2ccc(C(F)(F)F)cc2)cc1 [Compound 14d] please.
> 10 µM

Values compiled from patent US10968172B2.
